Assay: NCI Yeast Anticancer Drug Screen. Data for the bub3 strain (AID 167)
Conditions: S. cerevisiae bub3 mutant strain, at 50.0 µM, active compounds read high
About 79,000 compounds went through this panel and 15% of them were active in at least one assay; those are over-represented in the sample as a whole.
measured property: growth inhibition (%)
Give just the number in %; leave the unit off.

Use these answered entries as a reference point.
compound	growth inhibition (%)
CC1OC(OC2CCc3c(O)c4c(c(O)c3C2)C(=O)c2ccccc2C4=O)CC(N)C1O (configuration not stated)	-1.85
Clc1ccc(OCCBr)cc1	3.8
COc1ccc(NC(=O)CSc2cc(Cl)ccc2Cl)cc1	21.6
O=C(O)C(O)c1ccc(Cl)c(Cl)c1 (configuration not stated)	15.8
CSc1nc2nc(C)[nH]c2c(=O)[nH]1	9.8
CC(C)(C)NC(=O)Oc1ccc(-c2ccccc2)cc1Cl	99.3

From here, focus on the item given below.
Q: Please report the recorded growth inhibition for CC1(C)/C(=N\NC(N)=O)C2CCC1C2 (configuration not stated) .
A: -11.6

====

Experiment: NCI Yeast Anticancer Drug Screen. Data for the sgs1 mgt1 strain (AID 161);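 note: 0% = growth of cultures given vehicle only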
Conditions: S. cerevisiae sgs1 mgt1 strain, at 50.0 µM
Compounds without any hit were thinned out: in the full panel of roughly 79,000, 15% have a hit. Calls of active or inactive are those of the source. No stated cut-off is given here; in the data, active means growth inhibition above about 70%; inactive means the rest.
Write down one outcome, taken from 1 = active, -1 = inactive

Q: Each compound tested received a call. Report the one for `COc1cc(CCNC2=CC(=O)c3ncccc3C2=O)ccc1O` .
A: -1

Q: Each compound tested received a call. Report the one for `Cc1cc(C)c(N(C)C(=O)CCC(=O)O)c(Br)c1` .
A: -1

Q: Each compound tested received a call. Report the one for CC(OS(C)(=O)=O)C(C)OS(C)(=O)=O (centres undefined) .
A: -1

Q: Each compound tested received a call. Report the one for `c1ncncn1` .
A: -1

====

Item-by-item account of growth inhibition
Assay: NCI Yeast Anticancer Drug Screen. Data for the mlh1 rad18 strain (AID 175)
Conditions: S. cerevisiae mlh1 rad18 strain growth inhibition; at 50.0 µM; active compounds read high
The panel holds about 79,000 compounds, 15% with a hit somewhere; the sample as a whole holds those more often.
Give just the number in %; leave the unit off.

Q: Please report the recorded growth inhibition for `O=C1c2ccccc2-c2nc(-c3ccccc3)cc3c2c1nc1ccccc13` .
A: -7.15

Q: Please report the recorded growth inhibition for `CCC(CC)=NNc1ccc([N+](=O)[O-])cc1[N+](=O)[O-]` .
A: -9.85

Q: Please report the recorded growth inhibition for `c1ccc(OC23CC4CC(CC(C4)C2)C3)cc1` .
A: -21.6

Q: Please report the recorded growth inhibition for CC(=O)OC(C(=O)Nc1ncccn1)c1ccccc1 (stereo unspecified) .
A: -10.9

Q: Please report the recorded growth inhibition for `O=C(Cc1ccc([N+](=O)[O-])cc1)ON1C(=O)CCC1=O` .
A: 6

Q: Please report the recorded growth inhibition for `CCS(=O)(=O)c1ccc(NC(=O)OCc2ccccc2)cc1` .
A: -2.4

====

Experiment: NCI Yeast Anticancer Drug Screen. Data for the cln2 rad14 strain (AID 165);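 note: 0% = growth equal to vehicle treated cultures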
Conditions: S. cerevisiae cln2 rad14 strain, at 50.0 µM, active compounds read high
This is part of a sample that, as a whole, favours compounds with a hit. Of some 79,000 tested, about 15% had one in any assay. Calls of active or inactive are those of the source. Rule as the data show it: active = growth inhibition above about 70%; inactive = the rest.
measured property: growth inhibition

Use these answered entries as a reference point.
molecule	observed measurement
CCC(C)c1cc(CN(C)C)cc(C(C)CC)c1O (stereo not drawn)	13.8% (inactive)
NNC(=O)C1=NN(c2ccccc2)C(=O)C1	-12.9% (inactive)
CCCN(CCC#N)C(=S)Nc1ccc(C)c(C)c1	-7.5% (inactive)
CC(C)=Cc1ccccc1C1(C)C(c2ccccc2)=C1c1ccccc1	26.1% (inactive)
Cc1ccc(N2[C@H]3CCCN3c3ccc(C)cc3[C@@H]2C(F)(F)F)cc1	-2.25% (inactive)

Q: Please report the recorded growth inhibition for `Cc1ccc(-c2nn[nH]n2)cc1[N+](=O)[O-]` .
A: -11% (inactive)

Q: Please report the recorded growth inhibition for `[N-]=[N+]=NC12CC3CC4C5CC(CC41)CC2[C@H]5C3` .
A: -0.55% (inactive)

Q: Please report the recorded growth inhibition for CCOC(=O)N1N=C(c2ccccc2)OC2(N3CCOCC3)CCC(C(C)(C)C)CC12 (stereo not drawn) .
A: 5% (inactive)

Q: Please report the recorded growth inhibition for `CN(C)CCNc1ccc(CO)c2sc3ccc(O)cc3c(=O)c12` .
A: -32% (inactive)

Q: Please report the recorded growth inhibition for `COc1cc(OC)c2[nH]c3c(c(=O)c2c1)C(=O)c1[nH]c2c(OC)cc(OC)cc2c(=O)c1C3=O` .
A: 17.4% (inactive)

Q: Please report the recorded growth inhibition for CCOC(=O)NC(=S)NC(C)c1ccccc1 (stereo not drawn) .
A: -8.85% (inactive)

Q: Please report the recorded growth inhibition for `Cc1ccccc1-n1c(=S)[nH]c2c(sc(=O)n2-c2ccccc2C)c1=O` .
A: 17.6% (inactive)

====

Test: NCI Yeast Anticancer Drug Screen. Data for the bub3 strain (AID 167)
Details: S. cerevisiae bub3 mutant strain, at 50.0 µM
Method: Growth inhibition of yeast strains with defined genetic alterations is measured as a screen for potential anti-cancer activity. Selected strains with alterations in DNA damage repair or cell cycle control were exposed to compounds and growth inhibition was measured relative to vehicle treated controls. The strain used in this assay is bub3
This is part of a sample that, as a whole, favours compounds with a hit. Of some 79,000 tested, about 15% had one in any assay. Calls of active or inactive are those of the source. Rule as the data show it: active = growth inhibition above about 70%; inactive = the rest.
Write down one outcome, taken from active, inactive

A selection of reference data follows.
compound	cat
O=C1NC(=O)C(=CN2C(=O)/C(=C/c3ccc([N+](=O)[O-])cc3)SC2=S)C(=O)N1	inactive
CN(C)c1ccc(N=C2C=CC(=C(C#N)C#N)c3ccccc32)cc1	inactive
CCOC(=O)C(CCN(C)C)(CCN(C)C)c1ccccc1	inactive
CC(=O)/C(=C/N1C(=O)CC(=O)NC1=S)C(=O)Nc1ccccc1	inactive
CCOC(=O)Nc1cccc(Cl)c1	inactive

Q: Each compound tested received a call. Report the one for `CC(C)(NC(=O)c1ccccc1)NC(=O)c1ccccc1` .
A: inactive

Q: Each compound tested received a call. Report the one for `COCn1c(C)c(C)c2c(=O)oc(=O)[nH]c21` .
A: inactive

Q: Each compound tested received a call. Report the one for `CC(C)OP(=O)(O)CCl` .
A: inactive

Q: Each compound tested received a call. Report the one for `Cn1c(Cl)cn2c3nc4ccccc4nc3c(=O)c(C#N)c12` .
A: inactive

Q: Each compound tested received a call. Report the one for `Clc1cccc2[nH]c(-c3ccncc3)nc12` .
A: inactive

Q: Each compound tested received a call. Report the one for `O=C(O)c1cccc(C(=O)O)c1C(=O)O.[NH-]C1CCCCC1[NH-].[Pt+2]` .
A: inactive

Q: Each compound tested received a call. Report the one for C=CCNC(=O)N(CCCC(NC(C)=O)C(=O)NCc1ccccc1)Cc1ccccc1 (stereo unspecified) .
A: inactive

Q: Each compound tested received a call. Report the one for CCCOc1cc(C)c(C(=O)OC(C)CN2CCCC2)c(C)c1 (stereo unspecified) .
A: inactive

====

Item-by-item account of growth inhibition
Experiment: NCI Yeast Anticancer Drug Screen. Data for the cln2 rad14 strain (AID 165);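 note: 0% = growth equal to vehicle treated cultures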
Details: S. cerevisiae cln2 rad14 strain, at 50.0 µM, active compounds read high
Compounds without any hit were thinned out: in the full panel of roughly 79,000, 15% have a hit. The source made the active and inactive calls. Cut-off read from the data, not from the text of the source: active = growth inhibition above about 70%; inactive = the rest.

compound	growth inhibition
O=[N+]([O-])c1ccc(OS(=O)(=O)c2ccccc2)cc1	-3.95% (inactive)
Nc1nc(-c2ccccc2)c(N=Nc2cccc(Cl)c2)s1	-48% (inactive)
CCN1C(NN)=NS(=O)(=O)c2ccccc21	-19.9% (inactive)
O=C1c2ccccc2C(C(c2ccccc2)c2ccccc2)c2ccccc21	8.45% (inactive)
CCOc1ccc(NCC(=O)N2CC(=O)Nc3ccccc32)cc1	-5.15% (inactive)
COc1ccc(C(C)Nc2cc(OC)c(OC)c(OC)c2)cc1 (stereo not given)	5.5% (inactive)

Q: Please report the recorded growth inhibition for `O=C(Nc1ccc2ccccc2c1)c1ccc(Cl)cc1` .
A: 7.05% (inactive)

Q: Please report the recorded growth inhibition for `CCOC(=O)C(=O)Nc1c(C)cccc1CC` .
A: -16.4% (inactive)

Q: Please report the recorded growth inhibition for `CCCNC(=S)N=Nc1c(O)[nH]c2ccccc12` .
A: -31.5% (inactive)

Q: Please report the recorded growth inhibition for `CN(C)Cc1cc(C(C)(C)CC(C)(C)C)cc(Br)c1O` .
A: 28.8% (inactive)

Q: Please report the recorded growth inhibition for `C[N+]1(C)CCC(O)CC1` .
A: -13.4% (inactive)

====

Experiment: NCI Yeast Anticancer Drug Screen. Data for the mlh1 rad18 strain (AID 175)
Conditions: S. cerevisiae mlh1 rad18 strain growth inhibition; at 50.0 µM; active compounds read high
Compounds without any hit were thinned out: in the full panel of roughly 79,000, 15% have a hit.
Mark satisfied for reported growth inhibition of 10% or greater; mark not satisfied for anything smaller.

compound	cat
CCOC(=O)/C(C#N)=N/Nc1ccc(S(=O)(=O)NC(C)=O)cc1	not satisfied
Cc1cc(Cl)c2ccc(Cl)c(C)c2n1	not satisfied
CC(C)C1CCC2(C)C(CCC3C4(C)CCCC32OC4)C1 (stereo unspecified)	satisfied
O=C(Nc1ccccc1O)C(O)C(O)C(O)C(O)CO (stereo unspecified)	satisfied
c1ccc(C2=NN(c3ccccc3)C3C4CCC(C4)C23)cc1 (stereo unspecified)	satisfied

Q: Record CC12CCC(O)CC1=CCC1C2CCC2(C)C1CC1=CC(C#N)C(=O)NC12O (stereo unspecified) ; criterion: growth inhibition no lower than 10%. Met?
A: satisfied
